- target-system: hERG (KCNH2) (Homo sapiens, UniProt Q12809)
- Sequence (Q12809 whole entry): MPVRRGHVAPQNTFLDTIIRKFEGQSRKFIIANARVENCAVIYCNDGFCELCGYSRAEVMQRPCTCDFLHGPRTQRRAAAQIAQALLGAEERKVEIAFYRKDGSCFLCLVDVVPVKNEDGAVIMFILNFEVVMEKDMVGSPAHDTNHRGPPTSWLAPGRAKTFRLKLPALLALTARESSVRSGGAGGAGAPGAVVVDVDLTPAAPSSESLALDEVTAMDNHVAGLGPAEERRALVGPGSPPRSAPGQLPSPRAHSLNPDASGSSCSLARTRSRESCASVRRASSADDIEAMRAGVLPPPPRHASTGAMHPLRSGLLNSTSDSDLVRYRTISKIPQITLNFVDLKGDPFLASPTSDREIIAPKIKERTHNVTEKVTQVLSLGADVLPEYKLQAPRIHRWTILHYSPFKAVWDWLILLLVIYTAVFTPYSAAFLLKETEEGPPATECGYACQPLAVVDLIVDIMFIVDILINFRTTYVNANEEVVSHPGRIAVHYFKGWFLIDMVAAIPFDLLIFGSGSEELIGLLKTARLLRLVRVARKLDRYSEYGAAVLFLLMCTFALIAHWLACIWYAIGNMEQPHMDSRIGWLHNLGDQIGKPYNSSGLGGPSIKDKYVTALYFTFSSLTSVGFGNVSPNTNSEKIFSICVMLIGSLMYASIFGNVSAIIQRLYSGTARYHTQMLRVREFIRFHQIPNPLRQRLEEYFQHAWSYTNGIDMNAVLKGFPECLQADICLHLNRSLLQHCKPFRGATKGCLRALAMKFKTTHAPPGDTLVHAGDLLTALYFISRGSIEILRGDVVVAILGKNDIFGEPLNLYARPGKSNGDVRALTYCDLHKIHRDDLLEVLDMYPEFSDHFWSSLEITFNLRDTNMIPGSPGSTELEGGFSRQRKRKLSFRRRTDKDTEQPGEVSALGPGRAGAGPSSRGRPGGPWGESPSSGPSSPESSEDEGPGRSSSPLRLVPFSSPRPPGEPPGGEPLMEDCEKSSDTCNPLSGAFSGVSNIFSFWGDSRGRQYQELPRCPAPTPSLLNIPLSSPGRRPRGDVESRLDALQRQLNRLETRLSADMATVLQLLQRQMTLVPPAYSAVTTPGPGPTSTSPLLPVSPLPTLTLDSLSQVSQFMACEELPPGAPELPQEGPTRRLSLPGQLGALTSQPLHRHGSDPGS
- protocol-summary: Inhibition of human ERG transfected in CHO cells at 1.5 ug/mL by rubidium efflux assay relative to control
- Assay type: cell-based
- applied-conditions: CHO cells transfected with human ERG

[
  {
    "chem-smiles": "COc1ccc2c(c1)C(=O)N(c1nc(C(=O)Nc3cnccc3N3CCNCC3)cs1)C2",
    "unit-tag": "%",
    "inhibition at 1.5 ug/mL": 24
  }
]

* * *

- target-system: Serine/threonine-protein kinase Chk1 (Homo sapiens)
- Sequence (O14757 whole entry): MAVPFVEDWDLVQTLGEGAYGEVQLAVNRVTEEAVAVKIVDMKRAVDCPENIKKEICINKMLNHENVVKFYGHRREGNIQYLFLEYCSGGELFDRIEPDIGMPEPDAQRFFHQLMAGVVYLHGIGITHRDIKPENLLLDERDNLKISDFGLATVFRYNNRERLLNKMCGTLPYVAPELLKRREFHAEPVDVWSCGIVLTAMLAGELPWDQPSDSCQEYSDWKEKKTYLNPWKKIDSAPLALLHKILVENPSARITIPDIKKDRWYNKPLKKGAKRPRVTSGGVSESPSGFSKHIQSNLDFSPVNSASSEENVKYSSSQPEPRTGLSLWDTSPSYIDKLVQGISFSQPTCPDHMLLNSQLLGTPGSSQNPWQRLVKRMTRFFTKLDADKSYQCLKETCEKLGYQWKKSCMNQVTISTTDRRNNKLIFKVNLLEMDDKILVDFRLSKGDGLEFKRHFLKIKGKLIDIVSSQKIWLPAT
- protocol-summary: Inhibition of CHK1 in human U2OS cells assessed as phosphorylation of H2AX after 2 hrs by FITC/propidium iodide staining-based immunofluorescence assay in presence of hydroxyurea

[
  {
    "chem-smiles": "O=C(Nc1ccccc1N1CCNCC1)c1csc(Nc2n[nH]c3ccccc23)n1",
    "EC50 [µM]": 0.35
  },
  {
    "chem-smiles": "COc1ccc2c(c1)C(=O)N(c1nc(C(=O)Nc3ccccc3N3CCNCC3)cs1)C2",
    "EC50 [µM]": 0.25
  },
  {
    "chem-smiles": "O=C(Nc1cnccc1N1CCNCC1)c1csc(-c2ccc3sccc3c2)n1",
    "EC50 [µM]": 1.25
  },
  {
    "chem-smiles": "COc1ccc2c(c1)C(=O)N(c1nc(C(=O)Nc3cnc(C)cc3N3CCNCC3)cs1)C2",
    "EC50 [µM]": 1
  },
  {
    "chem-smiles": "O=C(Nc1cnccc1N1CCNCC1)c1csc(-c2ccc3[nH]ccc3c2)n1",
    "EC50 [µM]": 1
  }
]

* * *

- protocol-summary: AUC in rat at 10 mg/kg, po
- Format: ADME, organism-based
- Set-up: dose 10 mg/kg, route oral
- applied-conditions: plasma

[
  {
    "chem-smiles": "COc1ccc2c(c1)C(=O)N(c1nc(C(=O)Nc3cnccc3N3CCNCC3)cs1)C2",
    "AUC (µM·h)": 7.2
  }
]

* * *

- target-system: hERG (KCNH2) (Homo sapiens, UniProt Q12809)
- protocol-summary: Inhibition of human ERG transfected in CHO cells at 5 ug/mL by rubidium efflux assay relative to control
- Type: cell-based
- applied-conditions: CHO cells transfected with human ERG
measure: inhibition at 5 ug/mL (%)

[
  {
    "chem-smiles": "COc1ccc2c(c1)C(=O)N(c1nc(C(=O)Nc3cnccc3N3CCNCC3)cs1)C2",
    "observed-measurement": 65
  }
]

* * *

- target-system: Serine/threonine-protein kinase PLK3 (Homo sapiens, UniProt Q9H4B4)
- Sequence (Q9H4B4 whole entry): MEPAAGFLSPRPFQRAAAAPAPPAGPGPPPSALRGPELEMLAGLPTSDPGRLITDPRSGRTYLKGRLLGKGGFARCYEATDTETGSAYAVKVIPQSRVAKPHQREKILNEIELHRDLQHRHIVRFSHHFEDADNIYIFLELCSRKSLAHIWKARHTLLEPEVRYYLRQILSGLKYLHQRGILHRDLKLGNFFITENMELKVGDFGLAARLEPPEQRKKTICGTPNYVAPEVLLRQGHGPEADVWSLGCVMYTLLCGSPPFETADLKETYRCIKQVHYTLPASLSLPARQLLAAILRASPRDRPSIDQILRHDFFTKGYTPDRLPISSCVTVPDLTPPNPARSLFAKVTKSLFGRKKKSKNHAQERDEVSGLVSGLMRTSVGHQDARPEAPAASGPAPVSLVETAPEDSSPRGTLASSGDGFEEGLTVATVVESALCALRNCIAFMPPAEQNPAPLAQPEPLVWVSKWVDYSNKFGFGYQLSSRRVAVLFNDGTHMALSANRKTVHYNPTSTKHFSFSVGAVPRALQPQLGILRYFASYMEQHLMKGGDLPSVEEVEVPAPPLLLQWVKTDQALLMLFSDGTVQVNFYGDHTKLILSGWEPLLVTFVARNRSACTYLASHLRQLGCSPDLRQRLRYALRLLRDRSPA

[
  {
    "chem-smiles": "COc1ccc2c(c1)C(=O)N(c1nc(C(=O)Nc3cnccc3N3CCNCC3)cs1)C2",
    "IC50": "> 30 µM"
  }
]

* * *

- target-system: Mitogen-activated protein kinase 1 (Homo sapiens)
- Sequence (P28482 whole entry): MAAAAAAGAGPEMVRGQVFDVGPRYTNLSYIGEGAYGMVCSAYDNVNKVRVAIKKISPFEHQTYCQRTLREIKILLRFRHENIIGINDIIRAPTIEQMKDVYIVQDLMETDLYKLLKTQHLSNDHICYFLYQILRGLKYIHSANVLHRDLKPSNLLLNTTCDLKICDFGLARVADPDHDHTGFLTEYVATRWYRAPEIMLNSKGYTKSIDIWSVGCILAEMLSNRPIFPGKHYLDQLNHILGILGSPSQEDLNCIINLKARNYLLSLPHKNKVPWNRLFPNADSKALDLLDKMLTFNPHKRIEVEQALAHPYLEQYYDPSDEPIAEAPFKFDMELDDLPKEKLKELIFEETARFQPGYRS
- protocol-summary: Inhibition of human ERK2
measure: IC50

[
  {
    "chem-smiles": "COc1ccc2c(c1)C(=O)N(c1nc(C(=O)Nc3cnccc3N3CCNCC3)cs1)C2",
    "measure": "IC50",
    "observed-measurement": "20 µM"
  }
]

* * *

- target-system: hERG (KCNH2) (Homo sapiens, UniProt Q12809)
- protocol-summary: Inhibition of human ERG at 1 uM after 5 mins by voltage clamp assay relative to control
measure: inhibition at 5 min, 1 µM

[
  {
    "chem-smiles": "COc1ccc2c(c1)C(=O)N(c1nc(C(=O)Nc3cnccc3N3CCNCC3)cs1)C2",
    "target-system": "hERG (KCNH2) (Homo sapiens, UniProt Q12809)",
    "observed-measurement": "82%"
  }
]
